# system under test: Hypoxia-inducible factor 1-alpha (Homo sapiens)
# assay comment: ATG_HIF1a_CIS: Attagene CIS-FACTORIAL HepG2 Assay for human Hypoxia Inducible Factor 1 (HIF1A) (AID 2282951)
# condition context: HepG2 Attagene cis-factorial HIF1a reporter transcription; actives raise or lower the signal
Calls of active or inactive are those of the source. Rule for the calls: active = hit-call score of the fitted dose curve at least 0.9, where 1 is the maximum; inactive = score below 0.9.
Your reply should match one of these outcome classes. active, inactive

// param item: "CC1=CC(=O)c2ccccc2C1=O" ; yields the recorded call
inactive

// param item: "Oc1c(Cl)ccc(Cl)c1Cl" ; yields the recorded call
inactive

// param item: "NNC(=O)CCCCC(=O)NN" ; yields the recorded call
inactive

// param item: "Oc1ccc(Cc2ccccc2O)cc1" ; yields the recorded call
inactive

// param item: "Cc1cc(C(=C2C=CC(=Nc3ccc(S(=O)(=O)O)cc3)C=C2)c2ccc(Nc3ccc(S(=O)(=O)O)cc3)cc2)cc(S(=O)(=O)O)c1N" ; yields the recorded call
inactive

// param item: "C/C=C/C(=O)C1=C(C)CCCC1(C)C" ; yields the recorded call
inactive

// param item: "NNc1nc(-c2ccc([N+](=O)[O-])cc2)cs1" ; yields the recorded call
inactive

// param item: "CCCCCc1ccc(O)cc1" ; yields the recorded call
inactive

// param item: "Cc1cc(Cc2cc(C)cc(C(C)(C)C)c2O)c(O)c(C(C)(C)C)c1" ; yields the recorded call
active

// param item: "CCCCCCCCCCCCCCC" ; yields the recorded call
inactive

// param item: "OCCN1CN(CCO)CN(CCO)C1" ; yields the recorded call
inactive

// param item: "C=CC(=C)CC/C=C(\C)CCC=C(C)C" ; yields the recorded call
inactive

// param item: "Oc1cccc2c(O)cccc12" ; yields the recorded call
inactive
